System: HCC 2998
experimental.details: NCI tumour cell line growth inhibition, 48 h
Activity calls are given as the source filed them. No stated cut-off is given here; in the data, active = GI50 up to about 1.1 µM and inactive = higher.
Listing of entries alongside the reported GI50.
measure: GI50

| molecule | measure | result |
| --- | --- | --- |
| O=C1C(Cl)C(c2ccc([N+](=O)[O-])cc2)N1n1cnc2ccccc2c1=O (centres undefined) | GI50 | 73.6 µM (inactive) |
| CCCCCCCCCCCCCCCCOP(=O)([O-])OCC[N+](C)(C)C1CC(C)(C)N(O)C(C)(C)C1 | GI50 | > 100 µM (inactive) |
| COC(=O)C1CC2c3c(c4ccccc4n3C)CC(C1=O)N2C (centres undefined) | GI50 | 34.8 µM (inactive) |
| OCC1OC(n2cnc3c2NC=NC[C@H]3O)CC1O (some centres undefined) | GI50 | 387 µM (inactive) |
| CC(C)c1cc(C(C)C)c(S(=O)(=O)N=[N+]=[N-])c(C(C)C)c1 | GI50 | > 100 µM (inactive) |
| NC(=O)NC1C(c2ccccc2)=C1c1ccccc1 | GI50 | 16.5 µM (inactive) |
| CC(CC=O)Nc1nn2c(=O)c3ccccc3nc2s1 (centres undefined) | GI50 | > 100 µM (inactive) |
| CN(C)CCNC(=O)c1cccc2c1Nc1ccccc1S2 | GI50 | 13.9 µM (inactive) |
| CN(C)S(=O)(=O)/N=C/c1cccc(/C=N/S(=O)(=O)N(C)C)c1 | GI50 | > 100 µM (inactive) |

Data origin: ChEMBL document CHEMBL1201862
